Reference source for all entries: the nanobody polyreactivity screen of Harvey et al. (2022)

assay: yeast display, Sf9 membrane polyspecificity reagent, FACS + sequencing; frameworks hold sequencing errors

- CHAIN: "QVQLVESGGGLVQAGGSLRLSCAASGITFGYYDMGWYRQAPGKERELVASISSGGNTNYADSVKGRFTISRDNAKNTVYLQMNSLKPEDTAVYYCNVRYWGFYDYDYWGQGTQVTVSS"
  polyreactivity (PSR sort gate): "low polyreactivity"
- CHAIN: "QVQHVESGGGLVQAGGSLRLSGAASGSTFPTIAMGWNRQAPGKEREWVADITIRAGGTSYADSVKGRFTISRDNAKNSVYLQMNSLKPQDTAVFYCARSKSSELKRLLYDSWGEGTQVTVSS"
  polyreactivity (PSR sort gate): "low polyreactivity"
- CHAIN: "QVQLVESGGGLVQAGGSLRLSCAASGRTFASNVMGWYRQAPGKERELVAAISRRGGSTYYADSVKGRFTISRDNAKNTVYLQMNSLKPEDTAVYYCNAVLYHLTYDYWGQGTQVTVSS"
  polyreactivity (PSR sort gate): "high polyreactivity"
- CHAIN: "QVQLVESGGGLVQAGGSLRLSCAASGFTFYTNAMGWYRQAPGKERELVAAISKRGASTYYADSVKGRFTISRDNAKNTVYLQMNSLKPEDTAVYYCAASSRTHGSYDYWGQGTQVTVSS"
  polyreactivity (PSR sort gate): "high polyreactivity"
- CHAIN: "QVHLVESGGGLVQAGGSHRITCAASGITFVGNARGWYRQAPGKERELVAAIRWSSGRTYYADSVKGRFTISRDNAKNTVYLQMNSLKPEDTAVYYCATDYHYSQYYRFYYWGQGTQVTVSS"
  polyreactivity (PSR sort gate): "high polyreactivity"

* * *

experiment: yeast display, Sf9 membrane polyspecificity reagent, FACS + sequencing; frameworks hold sequencing errors

- CHAIN: "QVQLQESRGGPVLAGGSLRLSCAASGTIFVRLDMGWYRQAPGKEREFVATIGSGSSTYYADSVKGSFTISRDNVKNTVYLQMNSLKPEDTAVYYCAVSAAEQSRHYYWDQGTQVTVSS"
  polyreactivity (PSR sort gate): "low polyreactivity"
- CHAIN: "QVQLVESGGGLVQAGGSLRLSCAGSGFTFIIYAMGWYREAPGKERELVAAITRSGGSTYYADSVKGRFTISRDNAKNTVYLQMNSLKPEDTAVYYCAAALSVRFYFWGQGTQVTVSS"
  polyreactivity (PSR sort gate): "high polyreactivity"
- CHAIN: "QVQLVESGGGLVQAGGSLRLSCAASGITFSKYAMGWYRQAPGKERELVASITWSGTSTYYADSVKGRFTISRDNAKNTVYLQMNSLKPEDTAVYYCAAEGWGTFWRPPNGYGYEHDYWGQGTQVTVSS"
  polyreactivity (PSR sort gate): "low polyreactivity"
- CHAIN: "QVQLVESGGGLVQAGGSLRLSCAASGSTLSSNAMGWYRQAPGKERELVAAINRRGGTYYADSVKGRFTISRDNAKNTVYLQMNSLKPEDTAVYYCAAASPYHEYDYWGQGTQVTVSS"
  polyreactivity (PSR sort gate): "low polyreactivity"
- CHAIN: "QVQLVESGGGLVQAGGSLRLSCAASGIIFAYNAMGWYRQAPGKERELVATITDSGGSTSYADSVKGRFTISRDNAKNTVYLQMNSLKPEDTAVYYCAVLPVYWYWRNYVYLSGYDYWGQGTQVTVSS"
  polyreactivity (PSR sort gate): "low polyreactivity"
- CHAIN: "QVQLVESRSGIVQAGRSLRLSCAASGSIFGSYVMGWYRQAPGKERELVAAITVRTGTTYYADSVKGRFTISLDNAKNTVYLQMKRLKPEDTAVYYCDSRYGPKYGYWGQGNQVTVSS"
  polyreactivity (PSR sort gate): "high polyreactivity"
- CHAIN: "QVQIVESGGGLVQAGGSLRLSCAASGRIFQPYAMGWYRQATGKERELVAAITRRAGSTYYADSVKGRFTISRDNANNTVYVQMNSLKPEDTAVYYCAARGLYWAYEMEYWGQGTQVTVSS"
  polyreactivity (PSR sort gate): "low polyreactivity"
- CHAIN: "QVQLVESGGGLVQAGGSIRLSCAASGITFYKYAMGWYRQAPGKERELVAAISGNGGSTYYADSVKGRFTISRDYAKNTVYLQMNSLKPEDTAVYFCNRGYRRTDNYWGQGTQVTVSS"
  polyreactivity (PSR sort gate): "high polyreactivity"
- CHAIN: "QVQLVESGGGLVQAGGSLRLSCAASGYIFWSYAMGWYRQAPGKERELVAAISAYGCRTYYADSVKGRFTISRDNAKTTVYLQMNSLKPEDTAVYYCNADTGNHAYWYYGEFYYYTYDYWGQGTQVTVSS"
  polyreactivity (PSR sort gate): "low polyreactivity"
- CHAIN: "QVQLVESGGGLVQAGGSLRLSCAASGFTFWYYAMGWYRPAPGNERELVASISRTGGTTYYADSVKGRFTISRDNAKNTVDLQMTSLKPEDTAVYYCNARPKVYDREYDYWGQGTQVTVSS"
  polyreactivity (PSR sort gate): "high polyreactivity"
- CHAIN: "QVQLVQSWPGLVQEGGSLRLSSAESGYTIRWYAMGCYRQAHGKERELVASITSGGNTNYADSVKGRFTISRDNAKNTVYLQMNRLKTEDTEVYYCAATRGYYRLDYWGQGTQVTVSS"
  polyreactivity (PSR sort gate): "high polyreactivity"
- CHAIN: "QVQLVESGGGLVQAGGSLRLSCAASGFTFSYYAMGWYRQAPRKERELVAAISGGGGTNYADSVKGRFTISRDNAKNTVYLQMNSLKPEDTAVYYCATDQFTQPSHRRDYWGQGTQVTVSS"
  polyreactivity (PSR sort gate): "low polyreactivity"
- CHAIN: "QVQLVESGGVLVQAGGSLPLSCAASGFTFSRYAMGWYRQAPGKEREFVAGISRSGGSTYYADSVKGRFTNTRDNAMNTVSLQMNSLKPEDTAVYYWAKVYPATEAGDYWGQGTQVTVSS"
  polyreactivity (PSR sort gate): "high polyreactivity"
- CHAIN: "QVQLVESGGGLVQSGGSLRLSCAASGLIFGRYAMGWYRQAPGKERELVAAISYSGARTYYADSVKGRFTISRDNEKNTVYLQMNSLKPEDTAVYYCAAGPAFRQSEWWKAYDYWGQGTQVTVSS"
  polyreactivity (PSR sort gate): "high polyreactivity"
- CHAIN: "QVQLVESGGGLVQAGGSLRLSCAASGLILRGYAMGWYRQAPGKERELVAAISGSGGRTYYADSVKGRFTISRDNAKNTVYLQMNSLKPEDTAVYYCNKGGIREYDYWGQGTQVTVSS"
  polyreactivity (PSR sort gate): "high polyreactivity"
- CHAIN: "QVQHVESGGGLVQAGGSLRLSCAASGSIFVNNAMGWYRQAPGKERELVAAIRRSGGNTYYADSVKGRFTISRDNAKNTVYLQMNSLKPEDTAVYYCNVVRRADSIRAKSRDYWGQGTQVTVSS"
  polyreactivity (PSR sort gate): "high polyreactivity"
- CHAIN: "QVQLVESGGGLVQAGGSLRLSCAASGITFERYAMGWYRQAPGKERELVAAITYRGGSTYYADSVKGRFTISRDNAKNTVYLQMNSLKPEDTAVYYCNRARLRGAYIYWGQGTQVTVSS"
  polyreactivity (PSR sort gate): "high polyreactivity"
- CHAIN: "QVQLVESGGGLDQAGGSLRLSCAASGNTLNYYTMGWYRQAPGKEREFVAAISWRGSRTYYADSVKGRFTISRDNAKNTVYLQMNRLKQEDTAVYYCATARYGYYGWTPYGDYIFDYWGQGTQVTVSS"
  polyreactivity (PSR sort gate): "high polyreactivity"
- CHAIN: "QVQLVESGGGLVQAGGSLRLSCAASGSTFRYYAMGWYRQAPGKERELVAAISYGGGITNYADSVKGRLTISRDNAKNTVYLQMNSLKPEDTAVYYCAAYDRITRYDYWGQGTQVTVSS"
  polyreactivity (PSR sort gate): "high polyreactivity"
- CHAIN: "QVQLVESGGGLVQAGGSLRLSCAASGSIFVSEYVMGWYRQAPGKERELVARIRWSSGSTYYADSVKGRFTISRDNAKNTVYLQMNSLKPEDTAVYYCNKDYYYVIGWTYHRSYHYDYWGQGTQVTVSS"
  polyreactivity (PSR sort gate): "low polyreactivity"
- CHAIN: "QVQLVESGGGLVQAGGSLRLSCAASGSIFVTYAMGWYRQAPGKERELVASITLSGGSTYYADSVKGRFTISRDNAKNTVYFQKNSLKPEDTEVYYCNAEGTSWTSTRFDYWGQGTQVTVSS"
  polyreactivity (PSR sort gate): "high polyreactivity"

* * *

assay: yeast display, Sf9 membrane polyspecificity reagent, FACS + sequencing; frameworks hold sequencing errors
MEASURED METRIC: polyreactivity (PSR sort gate)

- CHAIN: "QLQLVESGGGLVQAGGSLRLSCAASGSIFNQYAMGWYRQAPGKERELVAAISSGSTYYADSVKGRFIISRDNAKNTVYLQMFSLKPEDTAVYYCAAGRNRRSSGIYVSKYWGQGTQETVSS"
  RESULT: "high polyreactivity"
- CHAIN: "QVQLVESGGGLVQAGRSLRLICAASGSIFDWYAMGWYRQAPGKEGELVAAISSGDSTYYADSVKGRFTISRDNAKNTVYLQMNSLKPEDTAVYYCAAVTKLSGIRYHYWGQGTQVTVSS"
  RESULT: "low polyreactivity"
- CHAIN: "QVQVVESGGGLVQAGGSLRLSCAASGRTFGGYDMGWYRQAPGKERELVAAISWSGGNTYYADSVKGRFTISRDNAKNTVYLQMNSLKPEDTAVYYCAAGHYVYWYRYQLGRYNYWGQGTQVTVSS"
  RESULT: "high polyreactivity"
- CHAIN: "QGQLVESGGGLVQAGGSLRLSCAASGRTFDSNAMGWYRQAPGKERELFAAISQRGGRTYYADSVKGRFTISRDNAKNTVYFQMNSLKQVYTAFYYCNKVGRRKLDYWGQGTQVTVSS"
  RESULT: "high polyreactivity"
- CHAIN: "QVQLVESGGGLVQAGGSLRLSCAASGLTFDGNTMGWYRQAPGKERELVAAISFDGGNTYADSVKGRFRISRDNAKNTVYLQMNSLKPEDTAVYYCNASYEYNAGRVETEYDYWGQGTQVTVSS"
  RESULT: "low polyreactivity"
